- Target Under Test: α5β3γ2 GABAA receptors (Homo sapiens, UniProt P18507+P31644)
- Sequence (P31644 32-462): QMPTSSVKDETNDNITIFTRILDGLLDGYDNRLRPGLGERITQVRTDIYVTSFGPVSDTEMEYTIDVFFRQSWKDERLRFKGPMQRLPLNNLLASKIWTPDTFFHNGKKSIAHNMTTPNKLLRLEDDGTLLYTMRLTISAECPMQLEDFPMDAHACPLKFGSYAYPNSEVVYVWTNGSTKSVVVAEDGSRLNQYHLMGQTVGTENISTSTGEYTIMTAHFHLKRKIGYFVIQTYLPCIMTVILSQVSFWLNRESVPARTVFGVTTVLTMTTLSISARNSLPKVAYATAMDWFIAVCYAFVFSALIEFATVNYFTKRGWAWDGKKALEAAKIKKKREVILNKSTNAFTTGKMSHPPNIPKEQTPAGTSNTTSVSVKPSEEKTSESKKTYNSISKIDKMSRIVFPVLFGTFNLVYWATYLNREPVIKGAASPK
- Sequence (P28472 26-473 partner): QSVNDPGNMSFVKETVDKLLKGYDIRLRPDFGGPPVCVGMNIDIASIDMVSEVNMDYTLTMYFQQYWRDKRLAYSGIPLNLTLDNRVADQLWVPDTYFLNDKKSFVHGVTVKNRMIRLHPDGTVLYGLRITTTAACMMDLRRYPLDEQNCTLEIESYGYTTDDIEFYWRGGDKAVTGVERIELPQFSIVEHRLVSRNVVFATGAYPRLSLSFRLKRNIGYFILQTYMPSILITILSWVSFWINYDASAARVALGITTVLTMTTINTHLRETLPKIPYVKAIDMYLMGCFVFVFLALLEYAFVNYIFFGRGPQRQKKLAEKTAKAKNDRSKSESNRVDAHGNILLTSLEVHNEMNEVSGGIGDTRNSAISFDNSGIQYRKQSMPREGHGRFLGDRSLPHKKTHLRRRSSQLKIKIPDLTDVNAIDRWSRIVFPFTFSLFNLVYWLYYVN
- Sequence (P18507 40-475): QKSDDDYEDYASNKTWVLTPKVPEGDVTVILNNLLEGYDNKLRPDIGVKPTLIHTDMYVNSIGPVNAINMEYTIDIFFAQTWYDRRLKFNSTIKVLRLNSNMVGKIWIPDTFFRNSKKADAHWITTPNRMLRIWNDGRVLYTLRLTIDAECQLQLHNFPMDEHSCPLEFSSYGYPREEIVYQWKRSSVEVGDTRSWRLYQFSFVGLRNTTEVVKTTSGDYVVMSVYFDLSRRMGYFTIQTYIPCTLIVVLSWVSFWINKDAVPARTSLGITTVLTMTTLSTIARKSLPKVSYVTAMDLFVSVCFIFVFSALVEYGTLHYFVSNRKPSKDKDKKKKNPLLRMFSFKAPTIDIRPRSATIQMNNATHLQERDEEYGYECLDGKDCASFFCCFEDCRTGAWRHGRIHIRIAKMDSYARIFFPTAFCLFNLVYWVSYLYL
- Test: [3H]Ro15-1788 binding, membranes of Ltk cells stably expressing α5β3γ2 GABAA receptors
- Condition Notes: ranges; inhibition of [3H]Ro15-1788 binding

| Compound | Target Under Test | Ki |
| --- | --- | --- |
| CCCc1noc(-c2ncn3c2Cc2c(Cc4ccc(F)cc4)nnn2-c2cc(OC(F)(F)F)ccc2-3)n1 [Compound 486] | α5β3γ2 GABAA receptors (Homo sapiens, UniProt P18507+P31644) | < 100 nM |
| COCc1nnc2n1Cc1c(C#Cc3ccc(C)nc3)ncn1-c1ccc(Cl)cc1-2 [Compound 556] | α5β3γ2 GABAA receptors (Homo sapiens, UniProt P18507+P31644) | 100 to 1000 nM |
| COCc1nnc2n1Cc1c(C#Cc3ncc(C)cn3)ncn1-c1ccc(OC)cc1-2 [Compound 595] | α5β3γ2 GABAA receptors (Homo sapiens, UniProt P18507+P31644) | 100 to 1000 nM |
| Clc1ccc2c(c1)-n1nncc1Cc1c(C#Cc3ccc(-n4cccc4)cc3)ncn1-2 [Compound 702] | α5β3γ2 GABAA receptors (Homo sapiens, UniProt P18507+P31644) | < 100 nM |
| COCc1nnn2c1Cc1c(C#Cc3cncc(C)c3)ncn1-c1ccc(Cl)cc1-2 [Compound 639] | α5β3γ2 GABAA receptors (Homo sapiens, UniProt P18507+P31644) | < 100 nM |
| CCOc1ccc(C#Cc2ncn3c2Cn2c(COC)nnc2-c2cc(Cl)ccc2-3)cn1 [Compound 709] | α5β3γ2 GABAA receptors (Homo sapiens, UniProt P18507+P31644) | 100 to 1000 nM |
| Cc1cncc(C#Cc2ncn3c2Cc2cnnn2-c2cc(Cl)ccc2-3)c1 [Compound 618] | α5β3γ2 GABAA receptors (Homo sapiens, UniProt P18507+P31644) | < 100 nM |
| COc1ccc2c(c1)-n1nncc1Cc1c(C#Cc3ccc(C(F)(F)F)cn3)ncn1-2 [Compound 529] | α5β3γ2 GABAA receptors (Homo sapiens, UniProt P18507+P31644) | 100 to 1000 nM |
| COc1ccc2c(c1)-n1nncc1Cc1c(C3=N[C@@H](c4ccc(F)cc4)CO3)ncn1-2 [Compound 367] | α5β3γ2 GABAA receptors (Homo sapiens, UniProt P18507+P31644) | < 100 nM |
| COCc1nnn2c1Cc1c(C3=NC[C@@H](c4ccc(Cl)cc4)O3)ncn1-c1ccc(Cl)cc1-2 [Compound 634] | α5β3γ2 GABAA receptors (Homo sapiens, UniProt P18507+P31644) | < 100 nM |
| COc1ccc2c(c1)-n1nncc1Cc1c(C#CC(C)(C)C)ncn1-2 [Compound 535] | α5β3γ2 GABAA receptors (Homo sapiens, UniProt P18507+P31644) | < 100 nM |
| COCc1nnc2n1Cc1c(C#Cc3cccc(OC)n3)ncn1-c1ccc(Cl)cc1-2 [Compound 611] | α5β3γ2 GABAA receptors (Homo sapiens, UniProt P18507+P31644) | < 100 nM |
| Fc1ccc(C#Cc2ncn3c2Cc2cnnn2-c2cc(C(F)(F)F)ccc2-3)cc1 [Compound 501] | α5β3γ2 GABAA receptors (Homo sapiens, UniProt P18507+P31644) | < 100 nM |
| Clc1ccc([C@H]2CN=C(c3ncn4c3Cc3cnnn3-c3cc(Cl)ccc3-4)O2)cc1 [Compound 720] | α5β3γ2 GABAA receptors (Homo sapiens, UniProt P18507+P31644) | < 100 nM |
| COCc1nnc2n1Cc1c(C#Cc3ncc(C)s3)ncn1-c1ccc(Cl)cc1-2 [Compound 607] | α5β3γ2 GABAA receptors (Homo sapiens, UniProt P18507+P31644) | < 100 nM |
| CC(C)(C)C#Cc1ncn2c1Cc1cnnn1-c1cc(Cl)ccc1-2 [Compound 534] | α5β3γ2 GABAA receptors (Homo sapiens, UniProt P18507+P31644) | < 100 nM |
| COCc1nnc2n1Cc1c(C#Cc3cccc(C)n3)ncn1-c1ccc(Cl)cc1-2 [Compound 596] | α5β3γ2 GABAA receptors (Homo sapiens, UniProt P18507+P31644) | < 100 nM |
